Test system: Jurkat HIV-luciferase clones
Assay: Jurkat latency reversal assay
Type: cell-based
Settings: Homo sapiens, 48 h; Jurkat latency reversal assay potency; read-out: Jurkat pEC50 (converted)
EC50: recorded values

// solved cases for EC50 follow
C[C@@H]1CN(CC(=O)N2CC(C)(C)c3[nH]c(=O)c(Cc4ccc(F)cc4)cc32)[C@@H](CN2CCO[C@H](COc3cc(F)cc(OC[C@@H]4CN(C[C@H]5CN[C@H](C)CN5CC(=O)N5CC(C)(C)c6[nH]c(=O)c(Cc7ccc(F)cc7)cc65)CCO4)c3)C2)CN1: 0.49 to 12.6 nM
C[C@@H]1CN(CC(=O)N2CC(C)(C)c3[nH]c(=O)c(Cc4ccc(F)cc4)cc32)[C@@H](CN2CCO[C@H](C(=O)NCC(C)(C)CNC(=O)[C@@H]3CN(C[C@H]4CN[C@H](C)CN4CC(=O)N4CC(C)(C)c5[nH]c(=O)c(Cc6ccc(F)cc6)cc54)CCO3)C2)CN1: 63.1 to 316 nM
C[C@@H]1CN(CC(=O)N2CC(C)(C)c3[nH]c(=O)c(Cc4ccc(F)cc4)cc32)[C@@H](CN2CCO[C@H](COc3ccc(-c4ccc(OC[C@@H]5CN(C[C@H]6CN[C@H](C)CN6CC(=O)N6CC(C)(C)c7[nH]c(=O)c(Cc8ccc(F)cc8)cc76)CCO5)cc4)cc3)C2)CN1: 0.49 to 12.6 nM

Please look at the following compound next.
The value of EC50 measured for the compound C[C@@H]1CN(CC(=O)N2CC(C)(C)c3[nH]c(=O)c(Cc4ccc(F)cc4)cc32)[C@@H](CN2CCO[C@H](COCCCCCCOC[C@@H]3CN(C[C@H]4CN[C@H](C)CN4CC(=O)N4CC(C)(C)c5[nH]c(=O)c(Cc6ccc(F)cc6)cc54)CCO3)C2)CN1 turned out to be 0.49 to 12.6 nM
